The reported numbers originate from patent US7615651B2.

molecular target: opioid receptor kappa (Homo sapiens); construct: expressed in transfected cells; assay: GTPγ[35S] binding assay, antagonism of dynorphin-A; type: biochemical; settings: read-out: Kappa functional (GTPγ[35S] binding Ki)
readout name: pKi
# pKi = -log10(concentration in molar units)

molecule | pKi
NC(=O)c1cccc(-c2ccc(CNCC3CCCOC3)cc2Cl)c1 (centres unmarked) | 7.83
Cc1cc(C(N)=O)ccc1-c1ccc(CNCc2ccccc2)cc1 | 8.74
NC(=O)c1ccc(-c2ccc(CNC3Cc4ccccc4C3)nc2)c(Cl)c1 | 8.30
CC(C)CCNCc1ccc(-c2ccc(C(N)=O)cc2Cl)cc1 | 8.21

Look up and report pKi, with opioid receptor kappa (Homo sapiens) as system, for Cc1cc(C(N)=O)ccc1-c1ccc(CNC2CCOc3c(C)cccc32)cc1 (centres unmarked)
8.31

Look up and report pKi, with opioid receptor kappa (Homo sapiens) as system, for `NC(=O)c1cccc(-c2ccc(CNC[C@@H]3CCCO3)cc2Cl)c1`
7.83

Look up and report pKi, with opioid receptor kappa (Homo sapiens) as system, for `Cc1cc(C(N)=O)ccc1-c1ccc(CNCc2ccc3c(c2)CC(C)(C)O3)cc1`
7.73

Look up and report pKi, with opioid receptor kappa (Homo sapiens) as system, for `Cc1cc(C(N)=O)ccc1-c1ccc(CNCCC(C)C)cc1`
8.67

Look up and report pKi, with opioid receptor kappa (Homo sapiens) as system, for `CC(C)CCNCc1ccc(-c2c(F)cc(C(N)=O)cc2F)cc1`
7.57

Look up and report pKi, with opioid receptor kappa (Homo sapiens) as system, for `Cc1cc(C(N)=O)ccc1-c1cc(F)c(CNC2Cc3ccccc3C2)c(F)c1`
9.62

Look up and report pKi, with opioid receptor kappa (Homo sapiens) as system, for `Cc1cc(C(N)=O)ccc1-c1ccc(CNC2Cc3ccccc3C2)cn1`
8.53

Look up and report pKi, with opioid receptor kappa (Homo sapiens) as system, for NC(=O)c1cccc(-c2ccc(CNCC3CCCCO3)cc2Cl)c1 (centres unmarked)
7.74

Look up and report pKi, with opioid receptor kappa (Homo sapiens) as system, for `Cc1cc(C(N)=O)ccc1-c1ccc(CNC2(c3ccccc3)CC2)cc1`
6.40

----------
Biological target: opioid receptor delta (Homo sapiens)
Construct: expressed in transfected cells
Sequence (P41143 whole entry): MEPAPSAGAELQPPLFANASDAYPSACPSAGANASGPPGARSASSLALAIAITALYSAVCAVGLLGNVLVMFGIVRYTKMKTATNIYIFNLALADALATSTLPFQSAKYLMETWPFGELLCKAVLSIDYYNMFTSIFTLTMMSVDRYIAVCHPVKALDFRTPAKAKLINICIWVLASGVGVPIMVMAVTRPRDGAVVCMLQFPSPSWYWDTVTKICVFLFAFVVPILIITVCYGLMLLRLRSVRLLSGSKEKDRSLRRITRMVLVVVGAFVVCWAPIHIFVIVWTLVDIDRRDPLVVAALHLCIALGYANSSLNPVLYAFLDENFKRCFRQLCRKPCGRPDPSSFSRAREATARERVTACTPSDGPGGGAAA
Assay: GTPγ[35S] binding assay, antagonism of BW-373U86
Format: biochemical
Conditions: average Ki; antagonism of BW-373U86 (1 nM) at delta opioid receptor; read-out: Delta functional Ki (GTPγ[35S] binding)
Experimental: Membranes were prepared from cells as described (Bass et al, 1996). […] Stimulation of GTPγ[^35S] binding was then quantified using a Wallac Microbeta and Ki calculations were done using Prism™ by Graphpad.
readout name: Ki (nM)
Expressed in nM, but write only the number.

smiles data | uom | readout value
CC(C)CCNCc1ccc(-c2cccc(NS(C)(=O)=O)c2)c(C#N)c1 | nM | 18.4

Next compound, Ki to be filled in.
Return Ki (reported value) for this compound: `Cc1cc(CNCCC(C)C)ccc1-c1cccc(NS(C)(=O)=O)c1`
10.4

----------
target: opioid receptor kappa (Homo sapiens, UniProt P41145); construct: expressed in transfected cells; experiment: GTPγ[35S] binding assay, antagonism of dynorphin-A; assay type: biochemical; details: read-out: Kappa functional (GTPγ[35S] binding Ki)
Sequence (P41145 whole entry): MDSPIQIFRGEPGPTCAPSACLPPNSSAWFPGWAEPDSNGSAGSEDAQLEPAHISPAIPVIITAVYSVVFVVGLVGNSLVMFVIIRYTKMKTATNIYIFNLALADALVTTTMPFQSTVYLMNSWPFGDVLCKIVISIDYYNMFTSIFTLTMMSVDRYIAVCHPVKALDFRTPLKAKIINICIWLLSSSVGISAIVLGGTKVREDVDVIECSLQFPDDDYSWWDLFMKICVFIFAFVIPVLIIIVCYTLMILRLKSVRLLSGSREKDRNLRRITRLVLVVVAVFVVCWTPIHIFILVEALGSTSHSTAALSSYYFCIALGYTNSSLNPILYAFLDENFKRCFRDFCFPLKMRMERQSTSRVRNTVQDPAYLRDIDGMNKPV
pKi: −log10 of the molar value.
I would appreciate it if you labelled entries T when pKi is 8 or higher, otherwise F.

Worked cases, answers included:
compound | cat
Cc1cc(C(N)=O)ccc1-c1ccc(CNC(C)(C)c2ccccc2)cc1 [4B-19] | F
Cc1cc(C(N)=O)ccc1-c1ccc(CN2Cc3ccccc3C2)cc1 [4B-13] | F
Cc1cc(C(N)=O)ccc1-c1ccc(CN[C@@H]2CCc3ccccc32)cc1 [4B-33] | T
Cc1cc(C(N)=O)ccc1-c1ccc(CNC(C)c2ccc3ccccc3c2)cc1 (stereo not drawn) [4B-27] | T
Cc1cc(C(N)=O)cc(C)c1-c1ccc(CNC2Cc3ccccc3C2)cc1 [4B-32] | T

Please turn your attention to the following entry.
// inclusive: pKi at least 8? input: CC(C)CCNCc1ccc(-c2ccc(C(N)=O)c(F)c2)cc1 [4B-15]
F

----------
Item-by-item account of Ki
target: opioid receptor delta (Homo sapiens); construct: expressed in transfected cells; assay: GTPγ[35S] binding assay, antagonism of BW-373U86; assay type: biochemical; details: read-out: Delta functional (GTPγ[35S] binding Ki)
Expressed in nM, but write only the number.

Some compounds with recorded Ki:
compound | Ki (nM)
NC(=O)c1cc(-c2ccc(CNC3Cc4ccccc4C3)cc2)ccc1F [4A-03] | 51.9
NC(=O)c1ccc(-c2ccc(CNC3Cc4ccccc4C3)nc2)c(Cl)c1 [1D-05] | 4.85
Cc1cc(C(N)=O)ccc1-c1ccc(CNCCC2CC2)cc1 [4B-11] | 7.05

Next compound, Ki to be filled in.
Return Ki (reported value) for this compound: NC(=O)c1cccc(-c2ccc(CNC[C@@H]3CCCO3)cc2Cl)c1 [4A-07]
24.3

----------
Item-by-item account of pKi
biological target: opioid receptor delta (Homo sapiens); construct: expressed in transfected cells; assay: GTPγ[35S] binding assay, antagonism of BW-373U86; format: biochemical; conditions: read-out: Delta functional Ki (GTPγ[35S] binding)
# pKi = -log10(concentration in molar units)

Some compounds with recorded pKi:
compound | readout name | readout value
CC(C)CCNCc1ccc(-c2ccc(-c3ncn[nH]3)cc2)c(F)c1 [7B-04] | pKi | 8.09
Cc1cc(C(N)=O)ccc1-c1ccc(CNCCC2CCOCC2)c(F)c1 [4B-60] | pKi | 8.84
CC(C)CCNCc1ccc(-c2ccc(C(N)=O)cc2Cl)cc1Cl [4B-65] | pKi | 8.32

Next compound, pKi to be filled in.
Return pKi (reported value) for this compound: Cc1cc(CNC2Cc3ccccc3C2)cc(Cl)c1-c1ccc(C(N)=O)cc1Cl [4B-82]
9.82

----------
target: opioid receptor mu (Homo sapiens, UniProt P35372); construct: expressed in transfected cells; test: GTPγ[35S] binding assay, antagonism of endorphin; format: biochemical; conditions: average Ki; antagonism of endorphin (1 μM) stimulated GTPγ[35S] binding, mu opioid receptor membranes; read-out: Mu functional (GTPγ[35S] binding Ki)
Sequence (P35372 whole entry): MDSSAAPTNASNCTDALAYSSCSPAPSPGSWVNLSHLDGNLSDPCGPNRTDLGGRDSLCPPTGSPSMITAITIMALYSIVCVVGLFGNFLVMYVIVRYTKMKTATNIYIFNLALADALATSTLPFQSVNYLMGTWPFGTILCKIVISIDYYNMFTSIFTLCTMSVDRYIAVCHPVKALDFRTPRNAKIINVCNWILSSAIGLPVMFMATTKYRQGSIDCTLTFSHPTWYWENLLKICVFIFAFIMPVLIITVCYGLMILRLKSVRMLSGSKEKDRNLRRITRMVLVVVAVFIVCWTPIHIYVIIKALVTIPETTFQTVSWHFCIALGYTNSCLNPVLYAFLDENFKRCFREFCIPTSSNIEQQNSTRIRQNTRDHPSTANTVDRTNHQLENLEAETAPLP
Threshold check on Ki: strictly below 10 nM is yes; on or above 10 nM is no.

Worked cases, answers included:
molecule | cat
CC(C)CCNCc1ccc(-c2cccc(C(N)=O)c2)c(C#N)c1 [1A-04] | yes
CC(C)CCNCc1ccc(-c2ccc(F)c(C(N)=O)c2)cc1 [4A-02] | no
COc1cc(-c2cccc(C(N)=O)c2)ccc1CNCCC(C)C [1A-05] | no
Cc1cc(C(N)=O)ccc1-c1ccc(CNCCC(C)C)cn1 [1D-02] | no

Please turn your attention to the following entry.
Hi there! Is Ki for CC(C)CCNCc1ccc(-c2cccc(C(N)=O)c2)cn1 [1C-01] below 10 nM, do you know?
no

----------
target: opioid receptor mu (Homo sapiens); construct: expressed in transfected cells; assay: GTPγ[35S] binding assay, antagonism of endorphin; format: biochemical; settings: read-out: Mu functional Ki (GTPγ[35S] binding)
readout name: Ki (nM)
Expressed in nM, but write only the number.

Return Ki (reported value) for this molecule: `Cc1cc(C(N)=O)ccc1-c1cc(F)c(CNC2CCCC2)c(F)c1`
37

Return Ki (reported value) for this molecule: `CC(C)CCNCc1ccc(-c2ccc(C(N)=O)cc2O)cc1`
549

Return Ki (reported value) for this molecule: `Cc1cc(C(N)=O)ccc1-c1ccc(CNCC2CCOCC2)c(F)c1`
36.8

----------
Item-by-item account of Ki
molecular target: opioid receptor mu (Homo sapiens, UniProt P35372); construct: expressed in transfected cells; experiment: GTPγ[35S] binding assay, antagonism of endorphin; assay type: biochemical; details: read-out: Mu functional Ki (GTPγ[35S] binding)
Expressed in nM, but write only the number.

molecule | Ki / nM
Cc1cc(C(N)=O)ccc1-c1ccc(CN[C@H]2CCc3ccccc32)cc1 | 1.08
CCc1cc(C(N)=O)ccc1-c1ccc(CNC2Cc3ccccc3C2)cc1C | 0.114
CC(C)CCNCc1ccc(-c2ccc(C(N)=O)cc2Cl)c(Cl)c1 | 7.83

Look up and report Ki, with opioid receptor mu (Homo sapiens, UniProt P35372) as system, for Cc1cc(CNCC2CCCO2)ccc1-c1ccc(C(N)=O)cc1C (centres unmarked)
9.83

Look up and report Ki, with opioid receptor mu (Homo sapiens, UniProt P35372) as system, for `Cc1cc(C(N)=O)ccc1-c1ccc(CNCc2cccnc2)cc1`
70.2

Look up and report Ki, with opioid receptor mu (Homo sapiens, UniProt P35372) as system, for `Cc1cc(CNCCC(C)C)ccc1-c1ccc(NS(C)(=O)=O)cc1`
42.1

Look up and report Ki, with opioid receptor mu (Homo sapiens, UniProt P35372) as system, for `Cc1cc(C(N)=O)ccc1-c1cc(F)c(CNCCC2CCOCC2)c(F)c1`
2.16

Look up and report Ki, with opioid receptor mu (Homo sapiens, UniProt P35372) as system, for `CC(C)CCNCc1ccc(-c2cccc(-c3ncn[nH]3)c2)cc1`
8.31

Look up and report Ki, with opioid receptor mu (Homo sapiens, UniProt P35372) as system, for `CCc1cc(C(N)=O)ccc1-c1ccc(CNCCC(C)C)cc1`
12

Look up and report Ki, with opioid receptor mu (Homo sapiens, UniProt P35372) as system, for `NC(=O)c1cccc(-c2ccc(CNCCc3cscn3)cc2Cl)c1`
12.4

Look up and report Ki, with opioid receptor mu (Homo sapiens, UniProt P35372) as system, for `CCc1cc(C(N)=O)ccc1-c1cc(F)c(CNCCC(C)C)c(F)c1`
13.4
